- assay.details: MultiTox-Fluor Cytotoxicity Assay - LYMP1-003 - Live Cells (AID 962);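 further: cells exposed to compound for 16 hours at 37 °C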
- assay.conditions: LYMP1-003 lymphoblastoid cells, MultiTox-Fluor live-cell protease fluorescence; series mostly up to 92.2 µM
Activity calls are given as the source filed them. The call rests on the fitted dose curve; in most records, active means well fitted cell-killing curve with a large enough effect; inconclusive means small, poorly fitted or top-dose-only effect; inactive means flat fitted curve, though single readings scatter.
Choose one outcome from this list and give only that: active, inactive

>>> print(df.to_string())
                                   molecule  category
0                                N#CC(Cl)Cl  inactive
1   COP(=O)(OC)O/C(=C\Cl)c1cc(Cl)c(Cl)cc1Cl  inactive
2  O=[N+]([O-])c1cc(C(F)(F)F)cc([N+](=O)[O-])c1Cl  inactive

So what was the verdict on [Cd+2].[Cl-].[Cl-] in this test? inactive

So what was the verdict on CC(C)CC(C)Nc1ccc(Nc2ccccc2)cc1 (configuration not stated) in this test? active

So what was the verdict on CN(C)c1ccc(N=O)cc1 in this test? active

So what was the verdict on C#CCO in this test? inactive

So what was the verdict on CCCCCCCCn1sccc1=O in this test? active

So what was the verdict on CC/C(=C(\c1ccccc1)c1ccc(OCCN(C)C)cc1)c1ccc(O)cc1 in this test? active

So what was the verdict on C(=NC1CCCCC1)=NC1CCCCC1 in this test? inactive

So what was the verdict on N#CSCSC#N in this test? active

So what was the verdict on Oc1c(Br)c(Br)c(Br)c(Br)c1Br in this test? inactive

###

- Tested on: CP315
- assay.details: qHTS profiling for inhibitors of Plasmodium falciparum proliferation (AID 504749); further: nearly all actives have a fitted effect of over 60% in size
- assay.conditions: P. falciparum in erythrocytes, SYBR Green DNA, 72 h; series mostly up to 28.7 µM
- Experimental: NIH National Institute of Allergy and Infectious Diseases [NIAID] NIH Chemical Genomics Center [NCGC] […] Because mature erythrocytes lack DNA, only Plasmodium-derived DNA is detected. NCGC Assay Protocol Summary: The SYBR Green viability assay was adapted from a method described previously (Plouffe et al., 2008). […] The following morning, fluorescence intensity at 485(14) nm excitation and 535(25) nm emission wavelengths was measured on an EnVision (Perkin Elmer) plate reader. […]
Results filed as inconclusive are left out. Calls of active or inactive are those of the source. The call rests on the fitted dose curve; in most records, active means well fitted inhibition curve with a large enough effect; inconclusive means small, poorly fitted or top-dose-only effect; inactive means flat fitted curve, though single readings scatter.
Choose one outcome from this list and give only that: Y for active, N for inactive

Some entries whose results are on file:
>>> print(df.to_string())
                                   molecule  assay_target  category
0  CN(C)[C@H]1C(=O)C(C(N)=O)=C(O)[C@]2(O)C(=O)C3=C(O)c4c(O)cccc4[C@@](C)(O)[C@H]3C[C@@H]12         CP315         N
1  CC(CO)NC(=O)C1C=C2c3cccc4[nH]cc(c34)CC2N(C)C1 (stereo unspecified)         CP315         N

So what was the verdict on Cc1ccc2c(c1)[C@@H]1CN(C)CC[C@H]1N2 in this test? N

So what was the verdict on C[C@]12CCC3C(CCC4=C(Cl)C(=O)CC[C@@]43C)C1CCC2O (stereo partly specified) in this test? N

So what was the verdict on C[C@@H]1CC[C@H]2[C@@H](C)C(=O)O[C@@H]3OC4(C)CC[C@@H]1C32OO4 (stereo partly specified) in this test? Y

So what was the verdict on CC(Cc1ccccc1)N(C)C (stereo unspecified) in this test? N

So what was the verdict on CCCC(C)C1(CC)C(=O)NC(=S)NC1=O (stereo unspecified) in this test? N

###

- assay.details: qHTS Assay for Identification of Small Molecule Agonists for Hypoxia Response Element Signaling Pathway (AID 914); further: % of control where 0% means no effect
- assay.conditions: ME-180 (cervical carcinoma) HRE-bla reporter, beta-lactamase ratio, CoCl2, 17 h; hits give high values
Inconclusive results are not listed. Activity calls are given as the source filed them. Calls follow the shape of the dose curve; as a rule, active = well fitted activation curve with a large enough effect in the signal ratio, with a control signal flat (not every such curve was filed as active); inconclusive = small, poorly fitted or top-dose-only effect, or effect the other way, or a change in a side signal; inactive = flat fitted curve, though single readings scatter; the % refers to the signal ratio. Where a SMILES comes first, the peptide text is derived from it.
endpoint.label: activation

                                   compound  reported_measurement
0  CC1CCC(C(C)C)C(OP(N)(=O)c2ccccc2)C1 (stereo unspecified)     -7.02% (inactive)

Summary for this compound, CC1(C)CC(n2[nH]c(=O)c3c2NC(=O)CSC3c2ccccc2)CCO1 (stereo unspecified) : activation is 18.8% (inactive)

Summary for this compound, OC(Cc1ccccc1)(c1ccccc1)C1CN2CCC1CC2 (stereo unspecified) : activation is 10.8% (inactive)

Summary for this compound, CC(C)C[C@H](NC(=O)[C@@H]1CCCN1C(=O)[C@@H](N)Cc1ccc(O)cc1)C(=O)NCC(N)=O (H-YPLG-NH2) : activation is -10.4% (inactive)

Summary for this compound, O=C(CN1CCN(CCO)CC1)Nc1ccc(Cl)cc1C(=O)c1ccccc1 : activation is 0.98% (inactive)

###

- assay.target: Muscarinic acetylcholine receptor M1 (Rattus norvegicus)
- assay.details: qHTS Assay for Antagonists of Acetylcholine Muscarinic M1 Receptor: Kinetic Measurement of Intracellular Calcium Response (AID 943); further: nearly all actives have a fitted effect of over 75% in size
- assay.conditions: M1-expressing cells, kinetic intracellular calcium fluorescence; series mostly up to 35.3 µM
Inconclusive results are not listed. Calls of active or inactive are those of the source. The call rests on the fitted dose curve; in most records, active means well fitted inhibition curve with a large enough effect; inconclusive means small, poorly fitted or top-dose-only effect; inactive means no such curve, though single readings can be large or run the other way.
Choose one outcome from this list and give only that: true (1) (active), false (0) (inactive)

>>> df
                                   compound   category
0  COC[C@H]1OC(=O)c2coc3c2[C@@]1(C)C1=C(C3=O)[C@H]2CCC(=O)[C@@]2(C)C[C@H]1OC(C)=O  false (0)

So what was the verdict on C[C@]12Cc3cn4c(nc3C=C1CC[C@H]1[C@@H]2CC[C@@]2(C)[C@H]1CC[C@@]2(O)C#N)nc1ccccc14 in this test? false (0)

So what was the verdict on C=CCN1CCc2cccc3c2[C@@H]1Cc1ccc(O)c(O)c1-3 in this test? false (0)

So what was the verdict on NC(=O)c1ccc(OC[C@H](O)CN2CC=C(c3ccc(F)cc3)CC2)cc1 in this test? true (1)

So what was the verdict on CN1[C@@H]2CC[C@H]1CC(O[C@@H](c1ccccc1)c1ccccc1N)C2 (stereo partly specified) in this test? true (1)

So what was the verdict on CCCC[N+]1(C)[C@@H]2CC(OC(=O)[C@@H](CO)c3ccccc3)C[C@H]1[C@H]1O[C@H]12 (stereo partly specified) in this test? true (1)

###

- assay.details: Cell Viability - LYMP2-019 (AID 973);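 further: cells exposed to compound for 24 h at 37 °C; nearly all actives have a fitted effect of over 55% in size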
- assay.conditions: LYMP2-019 lymphoblastoid cell line viability; series mostly up to 92.2 µM
Inconclusive results are not listed. The source made the active and inactive calls. The call rests on the fitted dose curve; in most records, active means well fitted cell-killing curve with a large enough effect; inconclusive means small, poorly fitted or top-dose-only effect; inactive means flat fitted curve, though single readings scatter.
Choose one outcome from this list and give only that: active, inactive

>>> print(df.to_string())
                                   compound  category
0     C=CC(=O)OCC(CO)(COC(=O)C=C)COC(=O)C=C    active
1  CC/C(=C(\c1ccccc1)c1ccc(OCCN(C)C)cc1)c1ccc(O)cc1    active
2  CC(C)CC(C)Nc1ccc(Nc2ccccc2)cc1 (stereo not given)    active

So what was the verdict on ClC1=C(Cl)C(Cl)(Cl)C(Cl)=C1Cl in this test? active

So what was the verdict on CCCCCCCCn1sccc1=O in this test? active

So what was the verdict on c1ccc2cc3c(cc2c1)-c1cccc2cccc-3c12 in this test? inactive

So what was the verdict on Nc1ccccc1C(=O)OCCc1ccccc1 in this test? inactive

So what was the verdict on c1cc(OCC2CO2)cc(OCC2CO2)c1 (stereo not given) in this test? active

So what was the verdict on O=[N+]([O-])c1cc(C(F)(F)F)cc([N+](=O)[O-])c1Cl in this test? active

So what was the verdict on Oc1c(Br)c(Br)c(Br)c(Br)c1Br in this test? inactive

So what was the verdict on COP(=O)(OC)O/C(=C\Cl)c1cc(Cl)c(Cl)cc1Cl in this test? inactive

So what was the verdict on O=C(CCl)c1ccccc1 in this test? active

###

- assay.details: qHTS assay for small molecule disruptors of the mitochondrial membrane potential - 5 hr assay (AID 651755); further: nearly all actives have a fitted effect of over 40% in size
- assay.conditions: JC-1-type ratio dye; series mostly up to 92.2 µM
Results filed as inconclusive are left out. Calls of active or inactive are those of the source. The call rests on the fitted dose curve.
Choose one outcome from this list and give only that: 1 (yes) (active), 0 (no) (inactive)

molecule	category
Nc1ccccc1C(=O)OCCc1ccccc1	0 (no)
C[C@@H]1CC[C@@]2(OC1)O[C@H]1[C@@H](O)[C@H]3[C@@H]4CC[C@H]5C[C@@H](O[C@@H]6O[C@H](CO)[C@H](O[C@@H]7O[C@H](CO)[C@@H](O)[C@H](O[C@@H]8OC[C@@H](O)[C@H](O)[C@H]8O)[C@H]7O[C@@H]7O[C@H](CO)[C@@H](O)[C@H](O[C@@H]8O[C@H](CO)[C@@H](O)[C@H](O)[C@H]8O)[C@H]7O)[C@H](O)[C@H]6O)[C@H](O)C[C@]5(C)[C@H]4CC[C@]3(C)[C@H]1[C@@H]2C	1 (yes)

So what was the verdict on O=[N+]([O-])c1cc(C(F)(F)F)cc([N+](=O)[O-])c1Cl in this test? 0 (no)

So what was the verdict on OC(c1ccc(Cl)cc1)(c1ccc(Cl)cc1)C(Cl)(Cl)Cl in this test? 0 (no)

So what was the verdict on Cc1c(N)cccc1N in this test? 1 (yes)

So what was the verdict on N#CC(Cl)Cl in this test? 0 (no)

So what was the verdict on ClC1=C(Cl)C2(Cl)C3C(Cl)C(Cl)CC3C1(Cl)C2(Cl)Cl (stereo not drawn) in this test? 0 (no)

So what was the verdict on [CH3][Hg][Cl] in this test? 1 (yes)
